TEST DETAILS: Cytotoxicity against mouse RAW264.7 cells assessed as reduction in cell viability at 20 uM incubated for 24 hrs in absence of LPS by MTT assay
Format: toxicity, cell-based
READOUT KIND: IC50 at 24 h

Please report IC50 at 24 h for the following compound: C=CCOc1ccc(/C=C/c2cc(OC)cc(OC)c2-c2cnnn2C(=O)NC(C)C)cc1
> 50 µM

----------
Test system: RAW264.7
TEST DETAILS: Anti-inflammatory activity in mouse RAW264.7 cells assessed as inhibition of LPS-induced NO production incubated pretreated with compound for 1 hr followed by LPS-induction and measured after 24 hrs by Griess reagent based assay
Type: functional, cell-based
Label Y when IC50 is strictly below 10 µM; at or above that, label N.

INSERT INTO assay_data (query_smiles, category) VALUES
  ('C=CCOc1ccc(/C=C/c2cc(OC)cc(OC)c2-c2cnnn2C(=O)NCCCC)cc1', 'N');

Determine if C=CCCCOc1ccc(/C=C/c2cc(OC)cc(OC)c2-c2cnnn2C(=O)NCC)cc1 shows IC50 strictly lower than 10 µM.
N

# check: IC50 < 10 µM for C=C(C)COc1ccc(/C=C/c2cc(OC)cc(OC)c2-c2cnnn2C(=O)NC(C)C)cc1
N

Answer whether the compound C=CCCOc1ccc(/C=C/c2cc(OC)cc(OC)c2-c2cnnn2C(=O)NCCCl)cc1 has IC50 strictly less than 10 µM
Y

Find out if reported IC50 for C=CCCOc1ccc(/C=C/c2cc(OC)cc(OC)c2-c2cnn[nH]2)cc1 is less than 10 µM
N

----------
Test system: RAW264.7
TEST DETAILS: Anti-inflammatory activity in mouse RAW264.7 cells assessed as inhibition of LPS-induced NO production incubated pretreated with compound for 1 hr followed by LPS-induction and measured after 24 hrs by Griess reagent based assay
Assay type: functional, cell-based
Attribute: IC50
For clarity, give the value followed by its unit.

Please indicate IC50 recorded for C=CCOc1ccc(/C=C/c2cc(OC)cc(OC)c2-c2cnn[nH]2)cc1
10.8 µM

Give IC50 for C=C(C)COc1ccc(/C=C/c2cc(OC)cc(OC)c2-c2cnn[nH]2)cc1
7.15 µM

Item C=CCCOc1ccc(/C=C/c2cc(OC)cc(OC)c2-c2cnnn2C(=O)NCCc2ccccc2)cc1 : provide IC50
9.46 µM

----------
Reported inhibition at 10 µM values for a set of compounds
System: RAW264.7
TEST DETAILS: Anti-inflammatory activity in mouse RAW264.7 cells assessed as inhibition of LPS-induced NO production at 10 uM incubated pretreated with compound for 1 hr followed by LPS-induction and measured after 24 hrs by Griess reagent based assay relative to control
Assay type: functional
DETAILS: time 25 hrs
State the answer as a number, implicitly in %.

// solved cases for inhibition at 10 µM follow
INSERT INTO assay_data (query_smiles, readout_kind, result_units, numeric_value) VALUES
  ('C=CCOc1ccc(/C=C/c2cc(OC)cc(OC)c2-c2cnn[nH]2)cc1', 'inhibition at 10 µM', '%', 53.7),
  ('C=CCCCOc1ccc(/C=C/c2cc(OC)cc(OC)c2-c2cnnn2C(=O)NCCCC)cc1', 'inhibition at 10 µM', '%', 60),
  ('C=CCOc1ccc(/C=C/c2cc(OC)cc(OC)c2-c2cnnn2C(=O)NCCCC)cc1', 'inhibition at 10 µM', '%', 50);

Please indicate inhibition at 10 µM recorded for C=CCCOc1ccc(/C=C/c2cc(OC)cc(OC)c2-c2cnnn2C(=O)NCC)cc1
46.3

For the compound C=CCCOc1ccc(/C=C/c2cc(OC)cc(OC)c2-c2cnnn2C(=O)NCCC)cc1 , give its reported inhibition at 10 µM.
72.7

Value source: ChEMBL document CHEMBL5532652
